Where do these numbers come from? They come from patent US20170107203A1.

Biological target: human Nav1.7 (Homo sapiens)
Construct: expressed in transfected cells
Assay: Assessment of Nav1.7 activity on PatchXpress (voltage dependence / slow inactivation parameters)
Format: cell-based
Settings: compound at 10 μM; before/after 30 sec conditioning pulse at 20 mV; relative to 0.2% DMSO vehicle control
READOUT_KIND: hNav1.7: Reduction in current at 20 mV (normalized data) Delta Ratio
Answers are plain numbers.

Some compounds with known hNav1.7: Reduction in current at 20 mV (normalized data) Delta Ratio results, for comparison:
>>> df
                                   compound    val
0       O=C1CNCCN1CCCc1nc2cc(F)cc(F)c2[nH]1   −0.1
1  N[C@H](Cc1cccc(C(F)(F)F)c1)C(=O)NCc1nc2ccc(-c3ccc(F)c(Cl)c3)cc2[nH]1  −0.07
2  O=C(NC[C@H]1CCCN1)Nc1cc(C(F)(F)F)cc(C(F)(F)F)c1  −0.18
3  FC(F)(F)c1cc(C(F)(F)F)c2[nH]c(C3NCc4ccccc43)nc2c1 (stereo not drawn)   −0.2
4  COC[C@@H]1C(=O)N(Cc2cc(C(F)(F)F)cc(C(F)(F)F)c2)CCN1C(C)=O   0.01

Report hNav1.7: Reduction in current at 20 mV (normalized data) Delta Ratio for every entry below.
1. Cc1cccc(C)c1OCC(C)NC(=O)CC(=O)NC1CCNCC1 (stereo not drawn)
2. CC(C)C[C@H](N)CC(=O)NCCOc1cc(F)cc(C(F)(F)F)c1
3. N[C@@H](c1ccc(F)cc1)c1nc2cc(C(F)(F)F)cc(C(F)(F)F)c2[nH]1
4. O=C(NCCOc1cc(F)cc(C(F)(F)F)c1)[C@H]1CCCN1

1. −0.03
2. −0.09
3. −0.21
4. −0.01

Report hNav1.7: Reduction in current at 20 mV (normalized data) Delta Ratio for every entry below.
1. CC[C@H](C)[C@H](N)C(=O)NCCOc1cc(C(F)(F)F)cc(C(F)(F)F)c1
2. COC[C@@H](NC(C)=O)C(=O)NCc1cc(C(F)(F)F)cc(C(F)(F)F)c1

−0.24
−0.04

Report hNav1.7: Reduction in current at 20 mV (normalized data) Delta Ratio for every entry below.
1. NCC(=O)NCc1cc(C(F)(F)F)cc(C(F)(F)F)c1
2. N[C@H](C(=O)NCCOc1cc(C(F)(F)F)cc(C(F)(F)F)c1)c1ccccc1
3. NC1(C(=O)NCCOc2cc(C(F)(F)F)cc(C(F)(F)F)c2)CC1

1. −0.04
2. −0.21
3. 0.00

----------
Target: human Nav1.7 (Homo sapiens, UniProt Q15858)
Construct: expressed in transfected cells
Sequence (Q15858 whole entry): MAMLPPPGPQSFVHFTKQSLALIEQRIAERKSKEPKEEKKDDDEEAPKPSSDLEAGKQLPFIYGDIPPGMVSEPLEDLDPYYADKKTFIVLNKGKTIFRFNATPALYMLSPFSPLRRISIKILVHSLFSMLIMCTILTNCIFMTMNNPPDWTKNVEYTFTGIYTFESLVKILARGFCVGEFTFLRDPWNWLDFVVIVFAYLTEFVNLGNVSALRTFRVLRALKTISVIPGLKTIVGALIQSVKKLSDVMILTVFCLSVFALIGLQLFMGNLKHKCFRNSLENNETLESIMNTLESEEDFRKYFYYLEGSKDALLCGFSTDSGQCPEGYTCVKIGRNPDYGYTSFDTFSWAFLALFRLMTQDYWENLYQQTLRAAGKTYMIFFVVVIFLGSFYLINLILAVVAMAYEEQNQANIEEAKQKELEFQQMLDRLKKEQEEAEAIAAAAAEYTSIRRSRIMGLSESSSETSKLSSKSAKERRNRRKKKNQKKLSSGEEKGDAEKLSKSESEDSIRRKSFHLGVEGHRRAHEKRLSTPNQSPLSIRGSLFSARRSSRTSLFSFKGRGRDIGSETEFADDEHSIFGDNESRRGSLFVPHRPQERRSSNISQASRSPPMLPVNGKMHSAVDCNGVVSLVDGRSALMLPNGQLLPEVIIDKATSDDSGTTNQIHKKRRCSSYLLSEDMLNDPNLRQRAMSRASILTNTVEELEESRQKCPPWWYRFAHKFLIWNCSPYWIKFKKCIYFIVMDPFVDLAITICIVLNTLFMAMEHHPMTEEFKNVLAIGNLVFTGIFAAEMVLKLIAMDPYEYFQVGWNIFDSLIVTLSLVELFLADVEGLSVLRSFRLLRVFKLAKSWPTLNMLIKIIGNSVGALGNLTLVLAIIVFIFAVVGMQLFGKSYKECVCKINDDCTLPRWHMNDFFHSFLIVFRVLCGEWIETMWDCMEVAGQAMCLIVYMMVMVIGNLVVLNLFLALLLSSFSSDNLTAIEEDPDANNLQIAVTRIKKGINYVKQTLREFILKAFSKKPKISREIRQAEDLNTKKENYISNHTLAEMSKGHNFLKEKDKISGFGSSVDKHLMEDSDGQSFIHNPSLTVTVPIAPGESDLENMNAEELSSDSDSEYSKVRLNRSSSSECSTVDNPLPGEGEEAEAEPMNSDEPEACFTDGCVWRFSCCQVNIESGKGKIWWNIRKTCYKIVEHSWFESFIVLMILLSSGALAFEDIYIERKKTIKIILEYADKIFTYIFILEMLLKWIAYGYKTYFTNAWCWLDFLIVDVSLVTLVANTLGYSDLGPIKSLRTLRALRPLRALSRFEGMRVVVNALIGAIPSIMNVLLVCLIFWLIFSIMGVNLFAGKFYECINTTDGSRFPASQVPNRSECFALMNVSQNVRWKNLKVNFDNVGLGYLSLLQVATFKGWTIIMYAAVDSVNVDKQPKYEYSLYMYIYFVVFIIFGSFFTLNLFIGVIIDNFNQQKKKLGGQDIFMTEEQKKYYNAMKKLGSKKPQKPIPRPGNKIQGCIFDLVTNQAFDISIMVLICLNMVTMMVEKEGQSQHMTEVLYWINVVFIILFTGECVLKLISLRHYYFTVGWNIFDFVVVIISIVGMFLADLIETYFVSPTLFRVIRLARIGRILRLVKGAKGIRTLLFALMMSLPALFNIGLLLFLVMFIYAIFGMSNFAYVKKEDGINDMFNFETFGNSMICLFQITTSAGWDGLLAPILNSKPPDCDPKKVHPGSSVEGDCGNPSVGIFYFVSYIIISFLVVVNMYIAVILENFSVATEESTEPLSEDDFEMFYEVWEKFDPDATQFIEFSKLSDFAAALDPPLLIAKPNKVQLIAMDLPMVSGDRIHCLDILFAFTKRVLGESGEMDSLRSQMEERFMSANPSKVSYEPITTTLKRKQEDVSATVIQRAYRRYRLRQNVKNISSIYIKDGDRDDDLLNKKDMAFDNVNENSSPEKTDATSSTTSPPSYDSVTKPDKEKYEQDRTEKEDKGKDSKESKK
Sequence (Q07699 19-218 partner): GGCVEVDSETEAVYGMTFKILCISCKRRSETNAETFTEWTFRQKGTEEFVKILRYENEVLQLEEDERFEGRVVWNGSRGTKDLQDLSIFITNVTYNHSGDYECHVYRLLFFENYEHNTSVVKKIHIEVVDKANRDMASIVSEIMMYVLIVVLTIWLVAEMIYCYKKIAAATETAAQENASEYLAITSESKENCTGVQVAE
Assay: Assessment of Nav1.7 activity on PatchXpress (voltage dependence / slow inactivation parameters)
Assay type: cell-based
Settings: compound at 10 μM; relative to 0.2% DMSO vehicle control
READOUT_KIND: hNav1.7: Voltage dependence of activation (mV) VDEP
Give bare numbers, in mV.

>>> df
                                   compound                             tested_target  unit_descriptor  val
0  N[C@@H](c1ccc(F)cc1)c1nc2cc(C(F)(F)F)cc(C(F)(F)F)c2[nH]1  human Nav1.7 (Homo sapiens, UniProt Q15858)               mV   −4

Report hNav1.7: Voltage dependence of activation (mV) VDEP for every entry below.
1. O=C(NCCOc1cc(F)cc(C(F)(F)F)c1)[C@H]1CCCN1
2. N[C@@H](c1ccc(Cl)cc1)c1nc2cc(C(F)(F)F)cc(C(F)(F)F)c2[nH]1
3. O=C1NC(=O)C(c2cc(C(F)(F)F)cc(C(F)(F)F)c2)N1 (centres unmarked)
4. O=C(Cc1nc2cc(F)cc(F)c2[nH]1)NC1CCNCC1

["−6.80", "−10", "−9.00", "−10.6"]
